Recorded pKi for the following compounds
Molecular target: hMC3-R (Homo sapiens)
Construct: expressed in transfected cells; host or cells: CHO-K1
Sequence (P41968 whole entry): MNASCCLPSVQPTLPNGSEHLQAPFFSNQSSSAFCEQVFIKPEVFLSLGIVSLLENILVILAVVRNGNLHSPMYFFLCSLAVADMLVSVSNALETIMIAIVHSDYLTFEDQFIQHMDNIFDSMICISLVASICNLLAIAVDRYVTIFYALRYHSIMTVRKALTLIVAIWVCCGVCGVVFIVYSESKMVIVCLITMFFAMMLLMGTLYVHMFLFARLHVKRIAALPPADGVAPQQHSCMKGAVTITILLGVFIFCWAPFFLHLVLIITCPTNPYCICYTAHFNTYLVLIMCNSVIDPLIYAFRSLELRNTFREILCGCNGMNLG
Assay: Radioligand binding assay, [125I]-NDP-α-MSH competition, CHO-K1 membranes
Details: Table 5; read-out: Ki hMC3-R
Bridge positions count the residues as written; N and C are the ends. Square brackets hold non-standard residues; d marks the D form. Peptide text beside a SMILES is read from it. Bip = N[C@@H](Cc1ccc(-c2ccccc2)cc1)C(=O)O; 2Nal = N[C@@H](Cc1ccc2ccccc2c1)C(=O)O; d2Nal = N[C@H](Cc1ccc2ccccc2c1)C(=O)O; hArg = N=C(N)NCCCC[C@H](N)C(=O)O; Nle = CCCC[C@H](N)C(=O)O; GABA = NCCCC(=O)O; βAla = NCCC(=O)O
FYI, pKi means -log10 of a concentration in mol per litre.

>  <Compound>
C[C@@H](O)[C@H](NC(=O)[C@H]1CSSC[C@H](NC(=O)[C@H](N)Cc2ccccc2)C(=O)N[C@@H](Cc2c[nH]cn2)C(=O)N[C@H](Cc2ccccc2)C(=O)N[C@@H](CCCCNC(=N)N)C(=O)N[C@@H](Cc2c[nH]c3ccccc23)C(=O)NCCC(=O)N1)C(N)=O (H-[dF]CH[dF][hArg]W[βAla][dC]T-NH2; disulfide 2-8)

>  <pKi>
6.91

$$$$
>  <Compound>
CCOc1ccc(C[C@H]2NC(=O)[C@H](Cc3c[nH]cn3)NC(=O)[C@@H](NC(=O)[C@H](N)Cc3ccccc3)CSSC[C@H](C(=O)N[C@H](C(N)=O)[C@@H](C)O)NC(=O)CCNC(=O)[C@H](Cc3ccc(-c4ccccc4)cc3)NC(=O)[C@H](CCCCNC(=N)N)NC2=O)cc1 (H-[dF]CH[dY](Et)[hArg][Bip][βAla][dC]T-NH2; disulfide 2-8)

>  <pKi>
7.07

$$$$
>  <Compound>
CCOc1ccc(C[C@H]2NC(=O)[C@H](Cc3c[nH]cn3)NC(=O)[C@@H](NC(=O)[C@H](N)Cc3ccccc3)CSSC[C@H](C(=O)N[C@H](C(N)=O)[C@@H](C)O)NC(=O)CCNC(=O)[C@H](Cc3c[nH]c4ccccc34)NC(=O)[C@H](CCCCNC(=N)N)NC2=O)cc1 (H-[dF]CH[dY](Et)[hArg]W[βAla][dC]T-NH2; disulfide 2-8)

>  <pKi>
7.50

$$$$

Enquiry: What is its pKi for hMC3-R (Homo sapiens)? Entry: CCCC[C@H](NC(C)=O)C(=O)N[C@H]1CSSC[C@@H](C(N)=O)NC(=O)[C@H](Cc2ccc3ccccc3c2)NC(=O)[C@H](CCCNC(=N)N)NC(=O)[C@@H](Cc2ccc3ccccc3c2)NC(=O)[C@H](Cc2c[nH]cn2)NC(=O)[C@@H](C)NC1=O (Ac-[Nle]C[dA]H[d2Nal]R[2Nal]C-NH2; disulfide 2-8)
Return: 8.23

Enquiry: Checklist item: pKi tested on hMC3-R (Homo sapiens), entry CC(=O)N[C@@H](CC(C)C)C(=O)N[C@H]1CSSC[C@@H](C(N)=O)NC(=O)CCCNC(=O)[C@H](Cc2c[nH]c3ccccc23)NC(=O)[C@H](CCCNC(=N)N)NC(=O)[C@@H](Cc2ccccc2)NC(=O)[C@H](Cc2c[nH]cn2)NC1=O (Ac-LCH[dF]RW[GABA]C-NH2; disulfide 2-8 (inferred)) , value?
Return: 7.76
